Reported Endpoint: melting point

Examples with their reported melting point follow.
| Compound | melting point |
| --- | --- |
| CCCCCCC/C=C/C(=O)N1CCC(C(=O)O)CC1 [Compound 10] | 88 to 89 °C |
| CCCCCCC/C=C/C(=O)N1CCC(CC(=O)O)CC1 [Compound 35] | 65 to 66 °C |
| CCCCCCC/C=C/C(=O)N1CCN(c2ccc(N(C)C)cc2)CC1 [Compound 28] | 73 to 74 °C |
| CCCCCCC/C=C/C(=O)N1CCN(Cc2ccccc2)CC1 [Compound 26, 4-Benzyl-1-((E)-2-decenoyl)piperazine] | 62 to 63 °C |

Please state melting point for every compound in the list that follows.
1. CCCCCCC/C=C/C(=O)N1CCN(Cc2ccc(C(=O)O)cc2)CC1 [Compound 48]
2. CCCCCCC/C=C/C(=O)N1CCN(c2ccc(C)cc2)CC1 [Compound 43]
3. CCCCCCC/C=C/C(=O)N1CCN(c2ccc(O)cc2)CC1 [Compound 46]
4. CCCCCCC/C=C/C(=O)N1CCN(CCc2ccccc2)CC1 [Compound 27]
5. CCCCCCC/C=C/C(=O)N1CCN(c2ccc(OCC(=O)O)cc2)CC1 [Compound 47]

Result block:
["114 to 116 °C", "45 to 46 °C", "85 to 87 °C", "33 to 34 °C", "210 °C (dec.)"]
